Assay: Cytotoxicity against human NCM460 cells assessed as reduction in cell viability measured after 24 hrs by sulforhodamine B assay
Assay type: cell-based
observed_property: CC50 at 24 h

Assign CC50 at 24 h to the following record: CNC(=O)c1cc2c(cc1OC)[C@@]1(C)Cc3cnc(C)nc3C(C)(C)C1CC2 (mixture of isomers)
> 200 µM

----------
Assay: Cytotoxicity against human HAF cells assessed as reduction in cell viability measured after 24 hrs by sulforhodamine B assay
Format: cell-based
observed_property: CC50 at 24 h

Assign CC50 at 24 h to the following record: CNC(=O)c1cc2c(cc1OC)[C@@]1(C)Cc3cnc(C)nc3C(C)(C)C1CC2 (mixture of isomers)
> 200 µM
